Consider the following compounds; for each one, report its Total Cell Count.
Test system: Fibroblast
assay.name: Multiplex assay against human fibroblast
Format: toxicity, cell-based
reported.conditions: 24 h, 1 µM, compound concentration 1 uM, replicate 2
# answer = number (no unit)

## Input Please give the measured Total Cell Count for this compound: O=C(NCCNCC(O)COc1ccc(O)cc1)N1CCOCC1.O=C(NCCNCC(O)COc1ccc(O)cc1)N1CCOCC1.O=C(O)/C=C/C(=O)O (centres undefined) [XAMOTEROL FUMARATE]
## Output 149

## Input Please give the measured Total Cell Count for this compound: COc1cc(C(=O)N2CC[C@@H](O)[C@@H](N)C2)cc2nc(-c3cc4ccccc4n3CC3CC3)n(C)c12.Cl
## Output 125

## Input Please give the measured Total Cell Count for this compound: CC(C)(O)C(=O)N1CCN(c2ccc(C(F)(F)F)c(C3=C(c4c[nH]c5ccccc45)C(=O)NC3=O)c2)CC1
## Output 176

## Input Please give the measured Total Cell Count for this compound: Nc1nc(-c2ccco2)c2cnn(Cc3ccccc3F)c2n1
## Output 139

---

System: U2OS
assay.name: Multiplex assay against U2OS
Type: toxicity, cell-based
reported.conditions: human, 48 h, 10 µM, compound concentration 10 uM, replicate 1
Consider the following molecules; for each one, report its Population Pyknosed Nuclei (%).
Provide only the numeric value, understood in %.

## Input Missing value: Population Pyknosed Nuclei (%), U2OS, entry CCCCC[C@H](O)/C=C/[C@H]1[C@H](O)CC(=O)[C@@H]1CCCCCCC(=O)O . Fill in?
## Output 10

## Input Missing value: Population Pyknosed Nuclei (%), U2OS, entry OCCCNc1cc(-c2ccnc(Nc3cccc(Cl)c3)n2)ccn1 . Fill in?
## Output 21

## Input Missing value: Population Pyknosed Nuclei (%), U2OS, entry CCc1nn2c(C)cc(C)nc2c1Cc1ccc(-c2nnc(C3CCNCC3)o2)cc1 . Fill in?
## Output 19

## Input Missing value: Population Pyknosed Nuclei (%), U2OS, entry S=C(NCCCc1c[nH]cn1)NCCCN(Cc1ccc(Cl)c(Cl)c1)c1ccc(Br)cn1 . Fill in?
## Output 47

## Input Missing value: Population Pyknosed Nuclei (%), U2OS, entry COc1cc2nc(N3CCN(C(=O)COc4c(OC)cccc4C(C)C)CC3)nc(N)c2cc1OC.Cl.Cl . Fill in?
## Output 38

---

Consider the following compounds; for each one, report its Population Tubulin-Different-Phenotype (%).
System: Fibroblast
assay.name: Multiplex assay against human fibroblast
Format: toxicity, cell-based
reported.conditions: 24 h, 10 µM, compound concentration 10 uM, replicate 2
Provide only the numeric value, understood in %.

## Input Please give the measured Population Tubulin-Different-Phenotype (%) for this compound: CN1CCN2c3ccccc3Cc3ccccc3C2C1.Cl (stereo not drawn) [MIANSERIN HYDROCHLORIDE]
## Output 53

## Input Please give the measured Population Tubulin-Different-Phenotype (%) for this compound: O=C(NCCNCC(O)COc1ccc(O)cc1)N1CCOCC1.O=C(NCCNCC(O)COc1ccc(O)cc1)N1CCOCC1.O=C(O)/C=C/C(=O)O (stereo not drawn) [XAMOTEROL FUMARATE]
## Output 41

## Input Please give the measured Population Tubulin-Different-Phenotype (%) for this compound: CC(C)C[C@H](CO)Nc1nc(S[C@@H](C)c2ccccc2)nc2nc(N)sc12 [AZD-8797]
## Output 85

## Input Please give the measured Population Tubulin-Different-Phenotype (%) for this compound: O=c1ccc2ccc(OCCCCN3CCN(c4cccc5sccc45)CC3)cc2[nH]1 [BREXPIPRAZOLE]
## Output 71

## Input Please give the measured Population Tubulin-Different-Phenotype (%) for this compound: Cl.Cl.OCCOCCN1CCN(C(c2ccccc2)c2ccc(Cl)cc2)CC1 (stereo not drawn) [HYDROXYZINE HYDROCHLORIDE]
## Output 66

## Input Please give the measured Population Tubulin-Different-Phenotype (%) for this compound: OCCCNc1cc(-c2ccnc(Nc3cccc(Cl)c3)n2)ccn1
## Output 80

## Input Please give the measured Population Tubulin-Different-Phenotype (%) for this compound: O=C(Nc1cc(-c2ccccc2)nn1-c1ccccc1F)c1ccc([N+](=O)[O-])cc1
## Output 69

## Input Please give the measured Population Tubulin-Different-Phenotype (%) for this compound: CN(C)C(=O)Cn1cc(-c2ccc(-c3nnc4ccccn34)cc2)cn1
## Output 71

---

Consider the following compounds; for each one, report its Population Apoptotic (%).
Tested on: U2OS
assay.name: Multiplex assay against U2OS
Type: toxicity, cell-based
reported.conditions: human, 48 h, 10 µM, compound concentration 10 uM, replicate 1
Provide only the numeric value, understood in %.

## Input Please give the measured Population Apoptotic (%) for this compound: Cc1nn(C)c2nc(NNC(=O)Nc3cc(Cl)nc(Cl)c3)cc(C(C)C)c12
## Output 83

## Input Please give the measured Population Apoptotic (%) for this compound: Cl.Cl.OCCOCCN1CCN(C(c2ccccc2)c2ccc(Cl)cc2)CC1 (centres undefined) [HYDROXYZINE HYDROCHLORIDE]
## Output 83

## Input Please give the measured Population Apoptotic (%) for this compound: CC(C)(C)c1ccc(CSc2cnn(C(C)(C)C)c(=O)c2Cl)cc1
## Output 90

## Input Please give the measured Population Apoptotic (%) for this compound: COc1cc(Nc2ncc3c(n2)-c2ccc(Cl)cc2C(c2c(F)cccc2OC)=NC3)ccc1C(=O)O
## Output 88

## Input Please give the measured Population Apoptotic (%) for this compound: CN1CCC(C(=O)c2cccc(NC(=O)c3c(F)cc(F)cc3F)n2)CC1
## Output 85

## Input Please give the measured Population Apoptotic (%) for this compound: COCCn1c(C)c(C)s/c1=N\C(=O)C1C(C)(C)C1(C)C
## Output 81

## Input Please give the measured Population Apoptotic (%) for this compound: C[C@H](NC(=O)CNC(=O)c1cccc(Cl)c1)c1ccccc1
## Output 81

## Input Please give the measured Population Apoptotic (%) for this compound: Cc1c(Cc2ccc3ccccc3n2)c2cc(F)ccc2n1CC(=O)O
## Output 100

## Input Please give the measured Population Apoptotic (%) for this compound: CCC(=O)OCC(=O)[C@@]1(OC(=O)CC)[C@@H](C)C[C@H]2[C@@H]3CCC4=CC(=O)C=C[C@]4(C)[C@@]3(Cl)[C@@H](O)C[C@@]21C [BECLOMETHASONE DIPROPIONATE]
## Output 80

---

Test system: Fibroblast
assay.name: Multiplex assay against human fibroblast
Type: toxicity, cell-based
reported.conditions: 24 h, 1 µM, compound concentration 1 uM, replicate 2
Consider the following compounds; for each one, report its Population Hoechst High Intensity Objects (%).
Provide only the numeric value, understood in %.

## Input Please give the measured Population Hoechst High Intensity Objects (%) for this compound: CC(C)C[C@H](CO)Nc1nc(S[C@@H](C)c2ccccc2)nc2nc(N)sc12 [AZD-8797]
## Output 0

## Input Please give the measured Population Hoechst High Intensity Objects (%) for this compound: O=c1ccc2ccc(OCCCCN3CCN(c4cccc5sccc45)CC3)cc2[nH]1 [BREXPIPRAZOLE]
## Output 3

## Input Please give the measured Population Hoechst High Intensity Objects (%) for this compound: CCCCCCNC(=O)Nc1ccc(S(=O)(=O)Nc2ccc(CCNC[C@H](O)COc3ccc(O)cc3)cc2)cc1 [L-755507]
## Output 2

## Input Please give the measured Population Hoechst High Intensity Objects (%) for this compound: CC(C)(O)C(=O)N1CCN(c2ccc(C(F)(F)F)c(C3=C(c4c[nH]c5ccccc45)C(=O)NC3=O)c2)CC1
## Output 8

---

Consider the following compounds; for each one, report its Population Hoechst High Intensity Objects (%).
System: U2OS
assay.name: Multiplex assay against U2OS
Type: toxicity, cell-based
reported.conditions: human, 12 h, 10 µM, compound concentration 10 uM, replicate 2
Provide only the numeric value, understood in %.

## Input Please give the measured Population Hoechst High Intensity Objects (%) for this compound: Cc1c(Cc2ccc3ccccc3n2)c2cc(F)ccc2n1CC(=O)O [TIMAPIPRANT]
## Output 0

## Input Please give the measured Population Hoechst High Intensity Objects (%) for this compound: C=CCN1C[C@H](C(=O)N(CCCN(C)C)C(=O)NCC)C[C@@H]2c3cccc4[nH]cc(c34)C[C@H]21 [CABERGOLINE]
## Output 2

## Input Please give the measured Population Hoechst High Intensity Objects (%) for this compound: CN1C[C@H](C(=O)N[C@]2(C)O[C@@]3(O)[C@@H]4CCCN4C(=O)[C@H](Cc4ccccc4)N3C2=O)C[C@@H]2c3cccc4[nH]cc(c34)C[C@H]21.CS(=O)(=O)O [DIHYDROERGOTAMINE MESYLATE]
## Output 1

## Input Please give the measured Population Hoechst High Intensity Objects (%) for this compound: Cc1sc2c(c1C)C(c1ccc(Cl)cc1)=N[C@H](CC(=O)OC(C)(C)C)c1nnc(C)n1-2
## Output 0

## Input Please give the measured Population Hoechst High Intensity Objects (%) for this compound: COc1cc2nc(N3CCN(C(=O)c4ccco4)CC3)nc(N)c2cc1OC.Cl [PRAZOSIN HYDROCHLORIDE]
## Output 0

## Input Please give the measured Population Hoechst High Intensity Objects (%) for this compound: Nc1nc(CC(=O)Nc2ccc(CCNC[C@H](O)c3ccccc3)cc2)cs1 [MIRABEGRON]
## Output 0

## Input Please give the measured Population Hoechst High Intensity Objects (%) for this compound: COc1cc(OC2CCN(C(C)=O)CC2)ccc1C(=O)N1CCC(N2C(=O)OCc3ccccc32)CC1
## Output 1
